The reported measurements were obtained from ChEMBL document CHEMBL1201862.

system: NCI-H522; test: NCI tumour cell line growth inhibition, 48 h
Calls of active or inactive are those of the source. Cut-off read from the data, not from the text of the source: active = GI50 up to about 1.1 µM and inactive = higher.
# valid calls are yes (active), no (inactive); nothing else

INSERT INTO results (molecule, class_assignment) VALUES
  ('Oc1cc(-c2cccc(C(F)(F)F)c2)nc2cc3c(cc12)OCO3', 'yes'),
  ('NS(=O)(=O)c1nnc(NC(=O)CCC(=O)O)s1', 'no'),
  ('COC(=O)c1cc2c(cc1CC1Cc3cc4c(cc3C1)CCC4)CCC2', 'no'),
  ('COc1ccc(N2C(=O)C3c4[nH]c5ccc(OCc6ccccc6)cc5c4C4CCC(c5ccccc5)CC4C3C2=O)cc1 (stereo not given)', 'no');

Shifting focus to the molecule that follows.
Query: Outcome? `Cc1ccc(-c2c(C#N)c(-c3ccccc3)n(NS(=O)(=O)c3ccc(C)cc3)c(=O)c2C#N)cc1`
Response: no
